Data credit: patent US7709498B2

Please respond with reported IC90 (μg/ml) STA RMETH for every item in the list.
Tested on: methicilline resistant Staphylococcus aureus (MRSA) (a clinical isolate from the University of Antwerp)
Test: Microtitre plate assay, IC90 determination, STA RMETH
Format: cell-based
Settings: 90% inhibitory concentration for bacterial growth, 37° C., 24 hours, resazurin fluorescence
Answers are plain numbers, in µg/mL.

Illustrative cases are given below, each with its answer.
COc1nc2ccc(Br)cc2cc1C(c1ccccc1)C(O)(CCN1CCN(C)CC1)c1ccc2cc(Br)ccc2c1 (racemic) : 24.5
COc1nc2ccc(Br)cc2cc1C(c1ccccc1)C(O)(CCn1ccnc1)c1ccccc1 (stereo not shown) : 10.5
COc1nc2ccc(Br)cc2cc1C(c1ccccc1)C(O)(CCN1CCN(C)CC1)c1cc(Br)cc2ccccc12 (racemic) : 15.4

Could you share which IC90 (μg/ml) STA RMETH value was measured for COc1nc2ccc(Br)cc2cc1C(c1ccccc1)C(O)(CCN1CCN(C)CC1)c1ccc2ccccc2c1 (racemic) ?
21.2
